Test system: Staphylococcus aureus ATCC 25923
Assay info: ≥ marks a high value that may be exact or a test limit, other limits are often not marked, values filed in µg/mL are converted to µM
Recorded metric: MIC

Examples with their reported MIC follow.
Compound: CC[C@H](C)[C@H](NC(=O)CNC(=O)[C@H](CO)NC(=O)[C@H](CC(C)C)NC(=O)[C@H](CC(C)C)NC(=O)CN)C(=O)N[C@@H](CC(C)C)C(=O)NCC(=O)N[C@@H](C)C(=O)NCC(=O)N[C@@H](CCCCN)C(=O)N[C@@H](CCCCN)C(=O)N[C@H](C(=O)N[C@H](C(=O)N[C@H]1CSSC[C@@H](C(=O)O)NC(=O)[C@H](CC(C)C)NC(=O)CNC(=O)[C@H](CO)NC(=O)[C@H](CC(C)C)NC(=O)CNC1=O)C(C)C)[C@@H](C)CC [GLLSGILGAGKKIVCGLSGLC]
MIC: 2.55 µM

Compound: CC(C)C[C@H](NC(=O)[C@H](CC(C)C)NC(=O)[C@H](CCCCN)NC(=O)[C@H](CCCCN)NC(=O)[C@H](CC(C)C)NC(=O)[C@H](CC(N)=O)NC(=O)[C@H](CCCCN)NC(=O)[C@H](CC(C)C)NC(=O)[C@@H](N)Cc1ccccc1)C(N)=O [FLKNLKKLL]
MIC: > 115 µM

# context switch: different compound, same MIC
[Q] MIC for CC[C@H](C)[C@H](NC(=O)[C@H](CCCN=C(N)N)NC(=O)[C@H](CCCCN)NC(=O)[C@@H](NC(=O)[C@@H](NC(=O)[C@H](CCCN=C(N)N)NC(=O)[C@@H](N)CCCCN)[C@@H](C)CC)C(C)C)C(=O)N[C@@H](CCCCN)C(=O)N[C@@H](CCCCN)C(=O)N[C@@H](Cc1ccccc1)C(=O)N[C@@H](CC(C)C)C(=O)N[C@@H](CCCN=C(N)N)C(=O)O [KRIVKRIKKFLR] ?
[A] ≥ 202 µM
